self-cleavage by entry:
B1: Hairpin Ribozyme (parent)
chain: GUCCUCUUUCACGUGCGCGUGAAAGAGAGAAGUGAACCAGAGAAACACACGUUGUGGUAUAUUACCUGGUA

Variants of: B1
Assay: self-cleavage, relative activity (ratio to wild type); higher = more cleavage; co-transcriptional
Just the number.

Below, each entry is followed by its recorded self-cleavage result.
G17C A31G: 0.425
G56C U63G: 0.175
A26C G42U: 0.307
A44C U62G: 0.304
A49U U55C: 0.349
G1A U33C: 0.0709
U7A A44U: 0.117
C16G G29U: 0.0825

Summary for this variant, A45G A47G : self-cleavage is 0.101

Summary for this variant, U14A G51U : self-cleavage is 0.925

Summary for this variant, C37U A45C : self-cleavage is 0.109

Summary for this variant, U2C C48G : self-cleavage is 0.108

Summary for this variant, C10G A64U : self-cleavage is 0.199

Summary for this variant, G17A A71G : self-cleavage is 1.04
